- STUDY_SYSTEM: AGE-BSA previously crosslinked to the collagen (Bos taurus, UniProt P02769)
- Construct: Bovine Serum Albumin (Type V), (BSA) Calbiochem; purchased Calbiochem (BSA Type V); Collaborative Biomedical Products (Biocoat collagen plates)
- Sequence (P02769 25-607): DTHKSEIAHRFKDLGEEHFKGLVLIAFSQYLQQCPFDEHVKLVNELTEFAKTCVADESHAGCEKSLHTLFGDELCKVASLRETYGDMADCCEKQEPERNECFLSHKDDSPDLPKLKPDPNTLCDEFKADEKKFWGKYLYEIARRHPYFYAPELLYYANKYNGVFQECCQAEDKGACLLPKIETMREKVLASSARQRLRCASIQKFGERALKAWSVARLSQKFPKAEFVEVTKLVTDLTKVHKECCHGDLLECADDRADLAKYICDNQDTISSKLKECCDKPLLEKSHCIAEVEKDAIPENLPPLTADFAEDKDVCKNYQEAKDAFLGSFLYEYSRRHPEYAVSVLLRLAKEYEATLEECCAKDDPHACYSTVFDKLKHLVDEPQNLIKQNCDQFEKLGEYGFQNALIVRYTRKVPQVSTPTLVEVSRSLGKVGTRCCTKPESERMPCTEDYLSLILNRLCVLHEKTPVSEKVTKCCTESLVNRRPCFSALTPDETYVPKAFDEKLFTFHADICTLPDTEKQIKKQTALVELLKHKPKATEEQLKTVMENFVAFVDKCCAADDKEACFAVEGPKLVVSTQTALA
- Sequence (P02454 152-1207 partner limits assumed): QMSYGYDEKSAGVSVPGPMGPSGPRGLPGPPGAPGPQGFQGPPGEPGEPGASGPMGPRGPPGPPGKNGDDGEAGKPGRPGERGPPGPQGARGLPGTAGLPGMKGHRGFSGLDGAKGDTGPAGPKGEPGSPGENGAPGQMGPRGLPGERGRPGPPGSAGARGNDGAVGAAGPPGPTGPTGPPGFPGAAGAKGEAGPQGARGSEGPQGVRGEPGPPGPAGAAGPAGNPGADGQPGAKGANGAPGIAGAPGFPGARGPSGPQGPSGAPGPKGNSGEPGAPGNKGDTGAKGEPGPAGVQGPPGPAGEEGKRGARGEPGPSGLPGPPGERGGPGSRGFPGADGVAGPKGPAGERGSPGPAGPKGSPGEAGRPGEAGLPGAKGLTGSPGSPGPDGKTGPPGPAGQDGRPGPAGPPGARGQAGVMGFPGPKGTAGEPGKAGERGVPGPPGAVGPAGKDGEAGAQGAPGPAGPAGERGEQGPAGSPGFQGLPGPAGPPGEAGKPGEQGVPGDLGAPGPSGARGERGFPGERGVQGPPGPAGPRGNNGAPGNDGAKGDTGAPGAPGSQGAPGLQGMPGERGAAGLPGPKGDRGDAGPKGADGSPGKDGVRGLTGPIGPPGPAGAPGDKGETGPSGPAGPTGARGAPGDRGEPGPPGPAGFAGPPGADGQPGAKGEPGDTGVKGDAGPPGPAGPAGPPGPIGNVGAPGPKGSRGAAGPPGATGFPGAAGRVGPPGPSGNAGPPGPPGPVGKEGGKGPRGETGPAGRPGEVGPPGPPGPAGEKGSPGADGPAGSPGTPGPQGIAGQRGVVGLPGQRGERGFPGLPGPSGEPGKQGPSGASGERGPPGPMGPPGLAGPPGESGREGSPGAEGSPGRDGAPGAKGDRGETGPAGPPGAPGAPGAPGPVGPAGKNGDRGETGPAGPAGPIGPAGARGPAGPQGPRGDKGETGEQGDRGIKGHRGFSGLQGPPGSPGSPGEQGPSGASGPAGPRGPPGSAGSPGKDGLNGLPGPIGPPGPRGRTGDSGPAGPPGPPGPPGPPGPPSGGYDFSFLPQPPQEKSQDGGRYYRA
- Sequence (P02466 86-1125 partner limits assumed): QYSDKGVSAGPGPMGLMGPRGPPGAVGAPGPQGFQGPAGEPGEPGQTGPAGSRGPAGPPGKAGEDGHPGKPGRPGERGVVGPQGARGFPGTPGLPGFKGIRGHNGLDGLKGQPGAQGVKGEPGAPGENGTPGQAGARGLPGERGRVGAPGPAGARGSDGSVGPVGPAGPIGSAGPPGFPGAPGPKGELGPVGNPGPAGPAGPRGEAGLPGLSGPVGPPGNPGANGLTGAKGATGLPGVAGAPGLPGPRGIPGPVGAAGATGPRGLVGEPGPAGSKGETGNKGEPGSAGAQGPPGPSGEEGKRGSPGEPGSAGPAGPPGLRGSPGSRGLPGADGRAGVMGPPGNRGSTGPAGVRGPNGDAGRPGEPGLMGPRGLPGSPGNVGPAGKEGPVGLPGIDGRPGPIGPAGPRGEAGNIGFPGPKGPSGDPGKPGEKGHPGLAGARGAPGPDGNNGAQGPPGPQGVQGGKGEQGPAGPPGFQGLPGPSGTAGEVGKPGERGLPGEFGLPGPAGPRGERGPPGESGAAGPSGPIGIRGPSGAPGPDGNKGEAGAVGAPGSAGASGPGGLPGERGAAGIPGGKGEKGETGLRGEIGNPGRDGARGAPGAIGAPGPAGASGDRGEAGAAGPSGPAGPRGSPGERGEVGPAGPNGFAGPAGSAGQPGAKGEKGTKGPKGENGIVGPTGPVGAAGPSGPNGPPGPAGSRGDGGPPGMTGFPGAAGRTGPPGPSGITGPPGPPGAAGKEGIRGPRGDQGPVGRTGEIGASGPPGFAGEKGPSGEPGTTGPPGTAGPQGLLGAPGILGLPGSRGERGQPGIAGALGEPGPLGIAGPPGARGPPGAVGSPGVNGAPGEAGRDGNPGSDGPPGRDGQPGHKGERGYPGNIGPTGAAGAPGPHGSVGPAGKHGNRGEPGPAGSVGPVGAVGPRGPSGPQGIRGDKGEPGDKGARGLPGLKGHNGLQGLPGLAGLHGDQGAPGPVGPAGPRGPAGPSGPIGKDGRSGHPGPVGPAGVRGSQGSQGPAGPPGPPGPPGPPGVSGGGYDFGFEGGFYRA
- PROTOCOL_DETAILS: Cross-Link Breaking Assay (sandwich enzyme immunoassay)
- Format: biochemical
- RECORDED_CONDITIONS: at 30 mM, anti-BSA antibody
Listed below: Breaking Anti-BSA values for each entry.
Give the number; % is assumed, so skip it.

Example cases with answers are listed next.
>>> value_observed("COC(=O)C[n+]1cscc1C.[Br-]")
51
>>> value_observed("Cc1c(CCO)sc[n+]1CC(=O)c1ccccc1.[Br-]")
13
>>> value_observed("COC(=O)C[n+]1csc2ccccc21.[Br-]")
37
>>> value_observed("Nc1sc2ccccc2[n+]1N")
54
>>> value_observed("COC(=O)C[n+]1csc(C)c1C.[Br-]")
47

Query: Breaking Anti-BSA; subject: `Cc1sc[n+](CC(N)=O)c1C.[Br-]` 16

Query: Breaking Anti-BSA; subject: `Cc1c(CCO)sc[n+]1Cc1ccccc1.[Cl-]` 61

Query: Breaking Anti-BSA; subject: `Cc1csc[n+]1CC(N)=O.[Br-]` 44

Query: Breaking Anti-BSA; subject: `Cc1csc[n+]1CC(=O)c1ccccc1.[Br-]` 66

Query: Breaking Anti-BSA; subject: `O=C(C[n+]1ccsc1)c1ccc(Br)cc1.[Br-]` 25

Query: Breaking Anti-BSA; subject: `COC(=O)C[n+]1csc(C)c1.[Br-]` 27

Query: Breaking Anti-BSA; subject: `O=C(O)C[n+]1csc2ccccc21.[Br-]` 17.9

Query: Breaking Anti-BSA; subject: `COC(=O)C[n+]1ccsc1.[Br-]` 41

----------
Listed below: Breaking Anti-BSA values for each entry.
- STUDY_SYSTEM: AGE-BSA previously crosslinked to the collagen (Bos taurus)
- Construct: Bovine Serum Albumin (Type V), (BSA) Calbiochem; purchased Calbiochem (BSA Type V); Collaborative Biomedical Products (Biocoat collagen plates)
- PROTOCOL_DETAILS: Cross-Link Breaking Assay (sandwich enzyme immunoassay)
- Format: biochemical
- RECORDED_CONDITIONS: at 10 mM, anti-BSA antibody
Give the number; % is assumed, so skip it.

Example cases with answers are listed next.
>>> value_observed("O=C(C[n+]1ccsc1)c1ccc2c(c1)OCCCO2.[Br-]")
18
>>> value_observed("Cc1c(CCOCc2c(Cl)cccc2Cl)sc[n+]1N.Cc1cc(C)c(S(=O)(=O)[O-])c(C)c1")
54
>>> value_observed("Cc1c(CCO)sc[n+]1CC(=O)c1ccc2ccccc2c1.[Br-]")
61

Please look at the following compound next.
Query: Breaking Anti-BSA; subject: `Cc1c[n+](CC(=O)c2cc(C(C)(C)C)c(O)c(C(C)(C)C)c2)cs1` 49

----------
Listed below: Breaking Anti-AGE values for each entry.
- STUDY_SYSTEM: AGE-BSA previously crosslinked to the collagen (Bos taurus)
- Construct: Bovine Serum Albumin (Type V), (BSA) Calbiochem; purchased Calbiochem (BSA Type V); Collaborative Biomedical Products (Biocoat collagen plates)
- PROTOCOL_DETAILS: Cross-Link Breaking Assay (sandwich enzyme immunoassay)
- Type: biochemical
- RECORDED_CONDITIONS: at 10 mM, anti-AGE antibody

Example cases with answers are listed next.
>>> value_observed("Nc1ccc2c(c1)sc(N)[n+]2CC(=O)c1ccc(F)cc1.[Br-]")
"24%"
>>> value_observed("Cc1c(CCOCc2c(Cl)cccc2Cl)sc[n+]1N.Cc1cc(C)c(S(=O)(=O)[O-])c(C)c1")
"31%"

Please look at the following compound next.
Query: Breaking Anti-AGE; subject: `CCOC(=O)c1ccc(NC(=O)C[n+]2csc(CCO)c2C)cc1.[Br-]` 48%
